target-of-assay: T1, B-cat-Halo (beta-catenin HaloTag NanoBRET construct expressed in HEK293 cells) (UniProt P35222 1-781)
T1 sequence (looked up): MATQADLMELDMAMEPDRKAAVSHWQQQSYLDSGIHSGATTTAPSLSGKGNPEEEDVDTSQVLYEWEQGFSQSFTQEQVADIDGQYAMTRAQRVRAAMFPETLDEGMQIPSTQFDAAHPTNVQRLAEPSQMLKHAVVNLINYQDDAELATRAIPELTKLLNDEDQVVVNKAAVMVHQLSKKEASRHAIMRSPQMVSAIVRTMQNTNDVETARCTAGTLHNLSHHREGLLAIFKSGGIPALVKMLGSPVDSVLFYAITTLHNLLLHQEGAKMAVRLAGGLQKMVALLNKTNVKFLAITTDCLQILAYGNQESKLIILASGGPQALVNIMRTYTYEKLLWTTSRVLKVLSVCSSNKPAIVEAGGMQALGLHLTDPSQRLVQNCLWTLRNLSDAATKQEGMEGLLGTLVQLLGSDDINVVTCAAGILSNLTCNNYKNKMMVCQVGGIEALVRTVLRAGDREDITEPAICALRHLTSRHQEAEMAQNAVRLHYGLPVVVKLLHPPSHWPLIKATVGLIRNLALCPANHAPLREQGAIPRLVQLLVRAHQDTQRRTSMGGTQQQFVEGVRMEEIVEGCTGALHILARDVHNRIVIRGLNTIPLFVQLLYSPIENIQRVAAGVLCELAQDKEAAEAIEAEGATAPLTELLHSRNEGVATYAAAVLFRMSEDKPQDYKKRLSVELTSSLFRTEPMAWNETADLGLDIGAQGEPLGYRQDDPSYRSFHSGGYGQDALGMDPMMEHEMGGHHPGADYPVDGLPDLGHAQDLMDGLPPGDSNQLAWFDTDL
test-protocol: cell-based or functional assay
Starred links: 1 amine or outer side, 2 acyl side, 3 side chain; linkers in the order of their positions; H or OH if unused. Positions of bridges follow the written chain, without caps; N, C: chain ends. Non-standard residues stand in square brackets, D forms with d. Primed or numbered codes have the meaning given here. B5(5) = 2,2-bis(4-pentenyl)glycine, 2-amino-2-(pent-4-en-1-yl)hept-6-enoic acid (stitching residue), C=CCCCC(CCCC=C)(N[*:1])C(=O)[*:2]; PyrS2 = (S)-3-amino-1-((pent-4-en-1-yloxy)carbonyl)pyrrolidine-3-carboxylic acid, C=CCCCOC(=O)N1CC[C@@](N[*:1])(C(=O)[*:2])C1; B5(12) = 2-amino-2-(pent-4-en-1-yl)hept-6-enoic acid (two olefin side chains), C=CCCCC(CCCC=C)(N[*:1])C(=O)[*:2]; Phe(3-COOH) = N[C@@H](Cc1cccc(C(=O)O)c1)C(=O)O; Phe(2-Cl) = N[C@@H](Cc1ccccc1Cl)C(=O)O; Bta = N[C@@H](Cc1csc2ccccc12)C(=O)O; αAllylPro = C=CC[C@@]1(C(=O)O)CCCN1; tBuAla = CC(C)(C)C[C@H](N)C(=O)O; 3Thi = N[C@@H](Cc1ccsc1)C(=O)O; PyrS2(4) = not defined here
Measured NanoBRET Abs IC50 by item
Entry rule: numbers only, all in µM.

binder	reported-value
Ac-[αAllylPro]D[tBuAla][B5(12)]D[Phe(3-COOH)]HAFL[PyrS2(4)][3Thi][Bta]F-NH2 (staple 1-4, 4-11; not fully specified; printed as Ac-PL3-Asp-Npg-B5-Asp-3COOHF-His-Ala-Phe-Leu-PyrS2-3Thi-BztA-Phe-NH2; reading uncertain) [I-1910]	13.8

Here's the next entry for you.
Inquiry: I would be grateful if you could share the reported NanoBRET Abs IC50 for Ac-[αAllylPro]D[tBuAla][B5(5)]D[Phe(3-COOH)]SAFL[PyrS2][Phe(2-Cl)][Bta]S-NH2 (staple 1-4, 4-11; not fully specified; printed as Ac-PL3-Asp-Npg-B5-Asp-3COOHF-Ser-Ala-Phe-Leu-PyrS2-2C1F-BztA-Ser-NH2) [I-1901] .
Reply text: 4.9
